Biological target: TANK-2 enzyme (Homo sapiens)
pIC50: −log10 of the molar value.
# pIC50 annotations

Let me know recorded pIC50 for O=c1[nH]nc(NC2CC(Cc3ccccc3)NC(Cc3ccccc3)C2)c2ccccc12 (stereo not shown) , thanks.
< 5.00

Give me measured pIC50, please, for this molecule: `N#CCN1CCN(c2n[nH]c(=O)c3ccccc23)CC1`
5.03

Answer with the recorded pIC50 of `Cc1nc2n(c(=O)c1CCN1CCN(c3nnc(C)c4ccccc34)CC1)CCS2` only.
< 5.00

----------
Target: PARP-1 enzyme (Homo sapiens, UniProt P09874)
Construct: made in house
Sequence (P09874 whole entry): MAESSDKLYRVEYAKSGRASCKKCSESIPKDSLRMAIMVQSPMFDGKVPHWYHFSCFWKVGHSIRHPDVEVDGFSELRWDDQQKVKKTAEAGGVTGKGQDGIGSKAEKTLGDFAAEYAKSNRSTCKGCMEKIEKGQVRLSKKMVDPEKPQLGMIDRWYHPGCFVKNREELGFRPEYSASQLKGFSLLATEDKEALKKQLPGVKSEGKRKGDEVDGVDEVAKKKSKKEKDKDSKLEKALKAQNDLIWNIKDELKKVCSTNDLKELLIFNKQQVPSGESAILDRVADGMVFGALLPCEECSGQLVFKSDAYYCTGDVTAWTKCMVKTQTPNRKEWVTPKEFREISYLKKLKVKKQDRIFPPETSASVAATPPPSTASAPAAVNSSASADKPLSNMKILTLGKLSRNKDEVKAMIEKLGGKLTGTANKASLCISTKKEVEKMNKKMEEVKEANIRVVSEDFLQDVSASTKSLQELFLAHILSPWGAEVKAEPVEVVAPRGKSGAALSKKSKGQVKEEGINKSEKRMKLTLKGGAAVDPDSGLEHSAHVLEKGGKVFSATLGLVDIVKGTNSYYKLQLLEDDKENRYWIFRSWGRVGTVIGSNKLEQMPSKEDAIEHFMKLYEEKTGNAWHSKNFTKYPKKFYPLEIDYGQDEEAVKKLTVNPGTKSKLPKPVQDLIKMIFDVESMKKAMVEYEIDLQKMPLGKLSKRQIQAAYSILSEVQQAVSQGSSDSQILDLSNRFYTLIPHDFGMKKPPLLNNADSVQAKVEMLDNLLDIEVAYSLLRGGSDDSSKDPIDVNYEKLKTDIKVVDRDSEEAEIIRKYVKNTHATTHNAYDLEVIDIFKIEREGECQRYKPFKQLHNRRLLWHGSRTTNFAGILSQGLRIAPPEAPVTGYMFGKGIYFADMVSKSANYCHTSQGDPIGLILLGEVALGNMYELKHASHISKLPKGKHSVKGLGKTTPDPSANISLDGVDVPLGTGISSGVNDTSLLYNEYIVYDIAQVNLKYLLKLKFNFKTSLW
Experiment: in vitro filtration assay for PARP-1 inhibitory activity
Assay type: biochemical
Details: [32P]-NAD, histones, nicked DNA; dose-response 10^-5 M to 10^-8 M; read-out: in vitro filter assay PARP-1 pIC50 (converted)
Procedure: In Vitro Filtration Assay for PARP-1 Inhibitory Activity Compounds of the present invention were tested in an in vitro filtration assay assessing PARP-1 activity (triggered in the presence of nicked DNA) by means of its histone poly (ADP-ribosylation activity using [^32P]-NAD as ADP-ribosyl donor. The radioactive ribosylated histones were precipitated by trichloroacetic acid (TCA) in 96-well filterplates and the incorporated [^32P] measured using a scintillation counter […]
measure-name: IC50
Write the quantity with the unit trailing the number.

O=c1[nH]nc(C2CCN(CC(O)COc3ccc(F)cc3)CC2)c2ccccc12 (centres unmarked) [Compound 2] :: 17.2 nM
O=c1[nH]nc(NC2CCN(C/C=C/c3ccccc3)CC2)c2ccccc12 [Compound 65] :: 91.2 nM
N#CCN1CCC(c2n[nH]c(=O)c3ccccc23)CC1 [Compound 7] :: 88.9 nM
O=c1[nH]nc(NCCNC2CCN(Cc3ccccc3)CC2)c2ccccc12 [Compound 42] :: 179 nM

# input for lookup
Quote PARP-1 enzyme (Homo sapiens, UniProt P09874) IC50 for entry Clc1nnc(N2CCN(c3ccccc3)CC2)c2ccccc12 [Compound 77] .
168 nM

----------
Quick reference for IC50 among some compounds
Biological target: TANK-2 enzyme (Homo sapiens, UniProt Q9H2K2)
Sequence (Q9H2K2 1-1166): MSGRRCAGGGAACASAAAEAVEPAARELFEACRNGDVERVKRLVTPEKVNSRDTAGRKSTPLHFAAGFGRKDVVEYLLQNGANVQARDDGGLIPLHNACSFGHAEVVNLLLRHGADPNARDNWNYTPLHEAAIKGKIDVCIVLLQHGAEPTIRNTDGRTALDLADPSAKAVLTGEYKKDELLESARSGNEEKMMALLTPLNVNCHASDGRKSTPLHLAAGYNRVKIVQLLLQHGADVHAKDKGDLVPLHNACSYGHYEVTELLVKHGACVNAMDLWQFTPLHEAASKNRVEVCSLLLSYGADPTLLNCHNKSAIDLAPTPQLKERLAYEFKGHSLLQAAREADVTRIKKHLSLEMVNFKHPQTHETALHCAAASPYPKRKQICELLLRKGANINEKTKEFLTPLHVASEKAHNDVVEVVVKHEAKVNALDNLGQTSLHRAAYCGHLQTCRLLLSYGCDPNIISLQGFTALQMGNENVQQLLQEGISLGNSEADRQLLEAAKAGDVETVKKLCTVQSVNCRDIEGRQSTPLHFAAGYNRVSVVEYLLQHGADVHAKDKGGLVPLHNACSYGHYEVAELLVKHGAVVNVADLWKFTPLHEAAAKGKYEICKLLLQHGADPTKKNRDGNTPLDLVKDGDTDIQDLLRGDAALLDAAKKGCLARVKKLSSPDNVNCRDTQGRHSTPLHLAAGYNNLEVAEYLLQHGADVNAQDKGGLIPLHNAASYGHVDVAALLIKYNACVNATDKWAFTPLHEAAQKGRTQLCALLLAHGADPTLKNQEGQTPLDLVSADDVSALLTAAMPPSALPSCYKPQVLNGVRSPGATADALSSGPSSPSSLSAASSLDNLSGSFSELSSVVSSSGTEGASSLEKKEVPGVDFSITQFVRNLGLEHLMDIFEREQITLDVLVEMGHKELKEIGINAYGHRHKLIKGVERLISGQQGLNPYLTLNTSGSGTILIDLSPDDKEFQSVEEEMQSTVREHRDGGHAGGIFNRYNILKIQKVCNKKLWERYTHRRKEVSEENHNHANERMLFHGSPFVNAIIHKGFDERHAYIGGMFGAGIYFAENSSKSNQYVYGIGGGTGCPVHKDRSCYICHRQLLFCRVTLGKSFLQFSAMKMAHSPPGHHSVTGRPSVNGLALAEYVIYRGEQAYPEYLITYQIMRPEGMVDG

O=c1[nH]nc(C2CCN(c3ncccn3)CC2)c2ccccc12 :: 5.52 µM
NCCN1CCC(Nc2n[nH]c(=O)c3ccccc23)CC1 :: > 10 µM
O=c1[nH]nc(N[C@@H]2C[C@H]3CC[C@@H](C2)N3CCCC(c2ccc(F)cc2)c2ccc(F)cc2)c2ccccc12 :: 5.05 µM
Cc1nnc(N2CCN(CCn3c(=O)[nH]c4ccccc43)CC2)c2ccccc12 :: > 10 µM
CCOC(=O)N1[C@@H]2CC[C@H]1C[C@H](Nc1n[nH]c(=O)c3ccccc13)C2 :: 2.13 µM

For the compound O=c1[nH]nc(N[C@H]2CCN[C@@H](Cc3ccccc3)C2)c2ccccc12 [Compound 10] , report IC50.
> 10 µM

Consider the compound `FC(F)(F)c1cccc(N2CCN(c3nnc(Cl)c4ccccc34)CC2)c1` and give its recorded IC50.
> 10 µM

Indicate its recorded IC50; the compound in question is `CCOC(=O)N1CCC(CCNc2n[nH]c(=O)c3ccccc23)CC1`
> 10 µM

Quote IC50 reported for `COc1ccccc1N1CCN(c2nnc(Cl)c3ccccc23)CC1` please.
> 10 µM

Give the reported value of IC50 for this record: `NCC1CCN(c2n[nH]c(=O)c3ccccc23)CC1`
> 10 µM
